molecular target: P. falciparum apicoplast DNA polymerase (Pf-apPOL) (Plasmodium falciparum, UniProt Q8ILY1); assay: Fluorescence-based high-throughput DNA polymerase assay (molecular beacon), primary screen and dose-response; format: biochemical; conditions: DRC-1; read at 180'; concentration 5
Sequence (Q8ILY1 entry or part of it): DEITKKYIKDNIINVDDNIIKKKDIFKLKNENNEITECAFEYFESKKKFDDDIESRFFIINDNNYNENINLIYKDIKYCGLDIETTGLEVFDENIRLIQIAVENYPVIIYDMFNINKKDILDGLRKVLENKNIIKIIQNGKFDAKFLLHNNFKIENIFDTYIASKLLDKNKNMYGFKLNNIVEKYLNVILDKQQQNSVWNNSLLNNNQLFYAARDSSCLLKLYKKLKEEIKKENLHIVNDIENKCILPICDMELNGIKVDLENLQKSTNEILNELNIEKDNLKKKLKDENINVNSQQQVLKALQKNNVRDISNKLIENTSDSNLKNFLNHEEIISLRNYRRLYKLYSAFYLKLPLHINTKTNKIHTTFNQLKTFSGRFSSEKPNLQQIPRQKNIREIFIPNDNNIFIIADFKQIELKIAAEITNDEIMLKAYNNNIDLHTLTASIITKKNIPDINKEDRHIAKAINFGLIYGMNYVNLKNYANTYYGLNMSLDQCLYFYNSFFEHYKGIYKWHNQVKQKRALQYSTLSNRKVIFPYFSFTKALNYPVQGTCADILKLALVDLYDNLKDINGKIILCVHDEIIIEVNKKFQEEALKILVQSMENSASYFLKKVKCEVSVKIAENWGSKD
Readout Type: % inhibition apPOL 180' 5 (%)
Give bare numbers, in %.

Look over these answered cases.
1. N#Cc1c(O)nc(N2CCCCC2)nc1-c1ccc2c(c1)OCO2 [KU0083146]	6.188
2. COc1ccccc1CC(=O)N1CCc2c(nc3cc(-c4ccccc4Cl)[nH]n3c2=O)C1 [Molecule 49]	-5.67
3. CCCc1ccc(Oc2coc3cc(OC)ccc3c2=O)cc1 [KU0193249]	19.9497

Kindly review the next compound as well.
Kindly note the recorded % inhibition apPOL 180' 5 for Cn1nc(-c2nc(-c3ccccc3)no2)c2c1CCN(C(=O)Cc1cccs1)C2 [Molecule 58] , which is -3.68
